Sourced from paper PMC8445433

Reported values of IC50 for individual entries
study-system: DRB1*03:01 (Homo sapiens, UniProt P01903+P01911, A100K/A102G/A103R/A169T/F55Y/I96L/K41T/L162R/M171V/P40S/Q125H/Q178H/Q39Y/R42S/S66N/T106N/T262R/W38E/Y61H)
method: biochemical
Where a SMILES comes first, the peptide text is derived from it.

{"compound": "CC[C@H](C)[C@H](NC(=O)[C@H](CCCNC(=N)N)NC(=O)[C@H](CC(C)C)NC(=O)[C@H](Cc1c[nH]cn1)NC(=O)CNC(=O)[C@@H](N)CCCNC(=N)N)C(=O)N[C@@H](C)C(=O)NCC(=O)N[C@@H](Cc1c[nH]cn1)C(=O)N[C@@H](Cc1c[nH]cn1)C(=O)N[C@@H](CC(C)C)C(=O)NCC(=O)N[C@@H](CCCNC(=N)N)C(=O)N[C@@H](CS)C(=O)N[C@@H](CC(=O)O)C(=O)O [Mem_30] (H-RGHLRIAGHHLGRCD-OH)", "bound-operator": "=", "IC50 [µM]": 14.6}
{"compound": "CC[C@H](C)[C@H](NC(=O)[C@H](CCCNC(=N)N)NC(=O)[C@H](CCCNC(=N)N)NC(=O)[C@@H](NC(=O)[C@H](C)NC(=O)[C@H](CCCNC(=N)N)NC(=O)[C@H](CCCNC(=N)N)NC(=O)[C@H](Cc1ccc(O)cc1)NC(=O)[C@@H](N)Cc1ccc(O)cc1)[C@@H](C)O)C(=O)N[C@@H](CCCNC(=N)N)C(=O)NCC(=O)NCC(=O)N[C@@H](CC(=O)O)C(=O)NCC(=O)N[C@@H](CCCCN)C(=O)O [Ncl_P18] (H-YYRRATRRIRGGDGK-OH)", "bound-operator": ">", "IC50 [µM]": 40}

###

study-system: DRB4*01:01 (Homo sapiens, UniProt P01903+P13762, G164S)
method: biochemical
pIC50: −log10 of the molar value. Where a SMILES comes first, the peptide text is derived from it.
Reported values of pIC50 for individual entries

{"molecule": "CC[C@H](C)[C@H](NC(=O)[C@H](CCC(N)=O)NC(=O)[C@H](CC(=O)O)NC(=O)[C@@H](N)CC(=O)O)C(=O)NCC(=O)N[C@@H](Cc1ccc(O)cc1)C(=O)N[C@@H](Cc1ccc(O)cc1)C(=O)N[C@@H](CCCNC(=N)N)C(=O)N[C@@H](CCCNC(=N)N)C(=O)N[C@@H](C)C(=O)N[C@H](C(=O)N[C@@H](CCCNC(=N)N)C(=O)N[C@@H](CCCNC(=N)N)C(=O)N[C@H](C(=O)N[C@@H](CCCNC(=N)N)C(=O)O)[C@@H](C)CC)[C@@H](C)O [Ncl_P17] (H-DDQIGYYRRATRRIR-OH)", "bound-operator": "<", "pIC50": 4.40}
{"molecule": "CC(C)C[C@H](NC(=O)[C@H](CC(N)=O)NC(=O)[C@H](CCCCN)NC(=O)[C@@H](NC(=O)[C@H](CCCNC(=N)N)NC(=O)[C@H](CO)NC(=O)[C@H](Cc1ccc(O)cc1)NC(=O)[C@@H](NC(=O)[C@H](Cc1ccc(O)cc1)NC(=O)[C@H](Cc1ccccc1)NC(=O)[C@H](CO)NC(=O)[C@@H]1CCCN1C(=O)[C@H](CCCCN)NC(=O)[C@@H](NC(=O)[C@@H](N)CC(C)C)C(C)C)C(C)C)C(C)C)C(=O)O [Env_11] (H-LVKPSFYVYSRVKNL-OH)", "bound-operator": "=", "pIC50": 4.41}
{"molecule": "CC[C@H](C)[C@H](NC(=O)CNC(=O)[C@H](CC(=O)O)NC(=O)[C@H](CCCCN)NC(=O)[C@H](CC(N)=O)NC(=O)[C@H](C)NC(=O)CNC(=O)[C@H](Cc1ccc(O)cc1)NC(=O)[C@@H]1CCCN1C(=O)[C@@H](N)CC(C)C)C(=O)N[C@H](C(=O)N[C@@H](Cc1c[nH]c2ccccc12)C(=O)N[C@H](C(=O)N[C@@H](C)C(=O)N[C@H](C(=O)O)[C@@H](C)O)C(C)C)[C@@H](C)CC [Ncl_25] (H-LPYGANKDGIIWVAT-OH)", "bound-operator": "=", "pIC50": 4.98}
{"molecule": "CC[C@H](C)[C@H](NC(=O)[C@H](CCCNC(=N)N)NC(=O)[C@H](CC(C)C)NC(=O)[C@H](Cc1c[nH]cn1)NC(=O)CNC(=O)[C@@H](N)CCCNC(=N)N)C(=O)N[C@@H](C)C(=O)NCC(=O)N[C@@H](Cc1c[nH]cn1)C(=O)N[C@@H](Cc1c[nH]cn1)C(=O)N[C@@H](CC(C)C)C(=O)NCC(=O)N[C@@H](CCCNC(=N)N)C(=O)N[C@@H](CS)C(=O)N[C@@H](CC(=O)O)C(=O)O [Mem_30] (H-RGHLRIAGHHLGRCD-OH)", "bound-operator": "=", "pIC50": 6.80}
{"molecule": "CC[C@H](C)[C@H](NC(=O)[C@H](CCCNC(=N)N)NC(=O)[C@H](CCCNC(=N)N)NC(=O)[C@@H](NC(=O)[C@H](C)NC(=O)[C@H](CCCNC(=N)N)NC(=O)[C@H](CCCNC(=N)N)NC(=O)[C@H](Cc1ccc(O)cc1)NC(=O)[C@@H](N)Cc1ccc(O)cc1)[C@@H](C)O)C(=O)N[C@@H](CCCNC(=N)N)C(=O)NCC(=O)NCC(=O)N[C@@H](CC(=O)O)C(=O)NCC(=O)N[C@@H](CCCCN)C(=O)O [Ncl_P18] (H-YYRRATRRIRGGDGK-OH)", "bound-operator": "=", "pIC50": 5.02}

###

study-system: DPA1*01:03 DPB1*04:01 (Homo sapiens, UniProt P04440+P20036)
Sequence (P20036 29-260): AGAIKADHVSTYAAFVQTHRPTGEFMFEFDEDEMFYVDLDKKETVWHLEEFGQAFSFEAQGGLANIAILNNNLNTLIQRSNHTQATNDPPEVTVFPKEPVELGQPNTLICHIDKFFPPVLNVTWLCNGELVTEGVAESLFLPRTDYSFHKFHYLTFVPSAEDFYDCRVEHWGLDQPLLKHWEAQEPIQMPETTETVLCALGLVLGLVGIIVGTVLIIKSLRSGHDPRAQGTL
Sequence (P04440 30-258): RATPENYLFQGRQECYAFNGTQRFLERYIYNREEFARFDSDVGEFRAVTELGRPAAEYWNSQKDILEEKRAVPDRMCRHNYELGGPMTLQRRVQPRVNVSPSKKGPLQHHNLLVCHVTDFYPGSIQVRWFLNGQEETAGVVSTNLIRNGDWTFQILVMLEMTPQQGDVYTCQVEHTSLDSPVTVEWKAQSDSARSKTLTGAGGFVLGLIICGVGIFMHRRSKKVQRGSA
method: biochemical
Assay type: binding
Where a SMILES comes first, the peptide text is derived from it.
quantity-measured: IC50 (µM)

{"compound": "CC[C@H](C)[C@H](NC(=O)[C@H](CCCNC(=N)N)NC(=O)[C@H](CC(C)C)NC(=O)[C@H](Cc1c[nH]cn1)NC(=O)CNC(=O)[C@@H](N)CCCNC(=N)N)C(=O)N[C@@H](C)C(=O)NCC(=O)N[C@@H](Cc1c[nH]cn1)C(=O)N[C@@H](Cc1c[nH]cn1)C(=O)N[C@@H](CC(C)C)C(=O)NCC(=O)N[C@@H](CCCNC(=N)N)C(=O)N[C@@H](CS)C(=O)N[C@@H](CC(=O)O)C(=O)O [Mem_30] (H-RGHLRIAGHHLGRCD-OH)", "study-system": "DPA1*01:03 DPB1*04:01 (Homo sapiens, UniProt P04440+P20036)", "result": 0.445}
{"compound": "CC[C@H](C)[C@H](NC(=O)CNC(=O)[C@H](CC(=O)O)NC(=O)[C@H](CCCCN)NC(=O)[C@H](CC(N)=O)NC(=O)[C@H](C)NC(=O)CNC(=O)[C@H](Cc1ccc(O)cc1)NC(=O)[C@@H]1CCCN1C(=O)[C@@H](N)CC(C)C)C(=O)N[C@H](C(=O)N[C@@H](Cc1c[nH]c2ccccc12)C(=O)N[C@H](C(=O)N[C@@H](C)C(=O)N[C@H](C(=O)O)[C@@H](C)O)C(C)C)[C@@H](C)CC [Ncl_25] (H-LPYGANKDGIIWVAT-OH)", "study-system": "DPA1*01:03 DPB1*04:01 (Homo sapiens, UniProt P04440+P20036)", "result": 20}
{"compound": "CC(C)C[C@H](NC(=O)[C@H](CCC(N)=O)NC(=O)[C@H](CC(N)=O)NC(=O)[C@H](CC(C)C)NC(=O)[C@H](CCCNC(=N)N)NC(=O)[C@H](CC(=O)O)NC(=O)[C@H](CC(C)C)NC(=O)[C@H](CC(C)C)NC(=O)[C@H](CC(C)C)NC(=O)[C@H](CC(C)C)NC(=O)[C@H](C)NC(=O)[C@H](CC(C)C)NC(=O)[C@H](C)NC(=O)[C@H](C)NC(=O)[C@@H](N)CC(=O)O)C(=O)O [Ncl_44] (H-DAALALLLLDRLNQL-OH)", "study-system": "DPA1*01:03 DPB1*04:01 (Homo sapiens, UniProt P04440+P20036)", "result": 2.78}
